# ASSAYED_SYSTEM: T1, Bio-Peptide-1 (human cytomegalovirus (4N variant, e.g. …))
# T1 construct: also called US28 ECD3 genotype 4N peptide
# T1 peptide: Biotin-TKKNNQCMTDYDYLEVS
# ASSAY_METHOD_TEXT: ELISA, Bio-Peptide-1 coated
Where no end group is shown, it is not given here. The star is where a group is joined. Biotin = O=C1N[C@H]2[C@H](CS[C@H]2CCCCC(=O)*)N1
PROPERTY_NAME: absorbance
Note: the reply should be a number with no unit written.

# absorbance of US28-13-1C10-1C10 (antibody, mouse IgG1, kappa, V domains shown) VH: EVKLVESGGVLVKPGGSLKFSCAASGFTFSSHALSWVRQTPEKRLEWVASISSRGRTYYPDSVKGRFTVSRDNARNILYLQVSSLRSEDTAMYYCTRGGTHYSYGNGFDFWGQGTTLTVSS VL: QIVLTQSPAIMSASPGEKVTMTCSVSSSVSYMHWYQQKSGTSPKRWIYDTSKLASGVPARFSGSGSGTSYSLTISTMEAEDAATYYCQQWSNNPPITFGAGTKLELKR = 3.11
